test system: Staphylococcus aureus; assay: Minimum inhibitory concentration against Staphylococcus aureus; assay type: functional
Quantity measured: MIC (µg/mL)
Field format: number, assumed µg/mL, no unit text.

Field: example entries. Status: answers known.
Line notation	MIC, µg/mL
CC[C@H]1OC(=O)[C@H](C)[C@H]2OC3(CCN(C(=O)c4cccnc4Cl)CC3)O[C@](C)(C[C@@H](C)CN[C@H](C)[C@@H](O)[C@]1(C)O)[C@H](O[C@@H]1O[C@H](C)C[C@H](N(C)C)[C@H]1O)[C@H]2C	1.56
CC[C@H]1OC(=O)[C@H](C)[C@H]2OC3(CCN(CCc4ccc(OC)cc4)CC3)O[C@](C)(C[C@@H](C)CN(C)[C@H](C)[C@@H](O)[C@]1(C)O)[C@H](O[C@@H]1O[C@H](C)C[C@H](N(C)C)[C@H]1O)[C@H]2C	0.39
CC[C@H]1OC(=O)[C@H](C)[C@H]2OC3(CCNCC3)O[C@](C)(C[C@@H](C)CN(C)[C@H](C)[C@@H](O)[C@]1(C)O)[C@H](O[C@@H]1O[C@H](C)C[C@H](N(C)C)[C@H]1O)[C@H]2C	6.25

Identify MIC associated with the compound CC[C@H]1OC(=O)[C@H](C)[C@H]2OC3(CCN(C(=O)c4cccnc4)CC3)O[C@](C)(C[C@@H](C)CN[C@H](C)[C@@H](O)[C@]1(C)O)[C@H](O[C@@H]1O[C@H](C)C[C@H](N(C)C)[C@H]1O)[C@H]2C
1.56

----------
test system: Staphylococcus aureus; test: Minimum inhibitory concentration against Staphylococcus aureus; type: functional
Quantity measured: log10 of MIC (log10 of the value in µg/mL)
For clarity, the numbers are log10 values of MIC expressed in µg/mL.

Field: example entries. Status: answers known.
Line notation	log10 of MIC
CC[C@H]1OC(=O)[C@H](C)[C@H]2OC3(CCN(C(=O)c4cncc(Cl)c4Cl)CC3)O[C@](C)(C[C@@H](C)CN[C@H](C)[C@@H](O)[C@]1(C)O)[C@H](O[C@@H]1O[C@H](C)C[C@H](N(C)C)[C@H]1O)[C@H]2C	0.50
CC[C@H]1OC(=O)[C@H](C)[C@H]2OC3(CCN(C(=O)c4ccnc5ccccc45)CC3)O[C@](C)(C[C@@H](C)CN(C)[C@H](C)[C@@H](O)[C@]1(C)O)[C@H](O[C@@H]1O[C@H](C)C[C@H](N(C)C)[C@H]1O)[C@H]2C	-0.41
CC[C@H]1OC(=O)[C@H](C)[C@H]2OC3(CCN(C(=O)c4ccoc4)CC3)O[C@](C)(C[C@@H](C)CN[C@H](C)[C@@H](O)[C@]1(C)O)[C@H](O[C@@H]1O[C@H](C)C[C@H](N(C)C)[C@H]1O)[C@H]2C	-0.11
CC[C@H]1OC(=O)[C@H](C)[C@H]2OC3(CCN(C(=O)c4cnc5ccccc5c4)CC3)O[C@](C)(C[C@@H](C)CN[C@H](C)[C@@H](O)[C@]1(C)O)[C@H](O[C@@H]1O[C@H](C)C[C@H](N(C)C)[C@H]1O)[C@H]2C	-0.41
CC[C@H]1OC(=O)[C@H](C)[C@H]2OC3(CCN(C(=O)c4ccc(-c5ccccc5)cc4)CC3)O[C@](C)(C[C@@H](C)CN[C@H](C)[C@@H](O)[C@]1(C)O)[C@H](O[C@@H]1O[C@H](C)C[C@H](N(C)C)[C@H]1O)[C@H]2C	-0.11
CC[C@H]1OC(=O)[C@H](C)[C@H]2OC3(CCN(CCc4ccccc4)CC3)O[C@](C)(C[C@@H](C)CN[C@H](C)[C@@H](O)[C@]1(C)O)[C@H](O[C@@H]1O[C@H](C)C[C@H](N(C)C)[C@H]1O)[C@H]2C	-0.41
CC[C@H]1OC(=O)[C@H](C)[C@H]2OC3(CCN(CCc4cccc(OC)c4)CC3)O[C@](C)(C[C@@H](C)CN(C)[C@H](C)[C@@H](O)[C@]1(C)O)[C@H](O[C@@H]1O[C@H](C)C[C@H](N(C)C)[C@H]1O)[C@H]2C	-0.22
CC[C@H]1OC(=O)[C@H](C)[C@H]2OC3(CCN(C(=O)c4ccc5ccccc5n4)CC3)O[C@](C)(C[C@@H](C)CN(C)[C@H](C)[C@@H](O)[C@]1(C)O)[C@H](O[C@@H]1O[C@H](C)C[C@H](N(C)C)[C@H]1O)[C@H]2C	-0.41
CC[C@H]1OC(=O)[C@H](C)[C@H]2OC3(CCN(C(=O)c4ccc5ccccc5n4)CC3)O[C@](C)(C[C@@H](C)CN[C@H](C)[C@@H](O)[C@]1(C)O)[C@H](O[C@@H]1O[C@H](C)C[C@H](N(C)C)[C@H]1O)[C@H]2C	-0.70
CC[C@H]1OC(=O)[C@H](C)[C@H]2OC3(CCN(CCc4ccc(OC)cc4)CC3)O[C@](C)(C[C@@H](C)CN[C@H](C)[C@@H](O)[C@]1(C)O)[C@H](O[C@@H]1O[C@H](C)C[C@H](N(C)C)[C@H]1O)[C@H]2C	-0.70

Send back Staphylococcus aureus log10 of MIC of CC[C@H]1OC(=O)[C@H](C)[C@H]2OC3(CCN(C(=O)c4cccn4C)CC3)O[C@](C)(C[C@@H](C)CN[C@H](C)[C@@H](O)[C@]1(C)O)[C@H](O[C@@H]1O[C@H](C)C[C@H](N(C)C)[C@H]1O)[C@H]2C only.
-0.11

Send back Staphylococcus aureus log10 of MIC of CC[C@H]1OC(=O)[C@H](C)[C@H]2OC3(CCN(C(=O)c4occc4C)CC3)O[C@](C)(C[C@@H](C)CN[C@H](C)[C@@H](O)[C@]1(C)O)[C@H](O[C@@H]1O[C@H](C)C[C@H](N(C)C)[C@H]1O)[C@H]2C only.
-0.11

Send back Staphylococcus aureus log10 of MIC of CC[C@H]1OC(=O)[C@H](C)[C@H]2OC3(CCN(C(=O)c4ccccn4)CC3)O[C@](C)(C[C@@H](C)CN(C)[C@H](C)[C@@H](O)[C@]1(C)O)[C@H](O[C@@H]1O[C@H](C)C[C@H](N(C)C)[C@H]1O)[C@H]2C only.
0.19

Send back Staphylococcus aureus log10 of MIC of CC[C@H]1OC(=O)[C@H](C)[C@H]2OC3(CCN(CCc4ccc5ccccc5n4)CC3)O[C@](C)(C[C@@H](C)CN(C)[C@H](C)[C@@H](O)[C@]1(C)O)[C@H](O[C@@H]1O[C@H](C)C[C@H](N(C)C)[C@H]1O)[C@H]2C only.
-0.41

Send back Staphylococcus aureus log10 of MIC of CC[C@H]1OC(=O)[C@H](C)[C@H]2OC3(CCN(Cc4cccnc4)CC3)O[C@](C)(C[C@@H](C)CN[C@H](C)[C@@H](O)[C@]1(C)O)[C@H](O[C@@H]1O[C@H](C)C[C@H](N(C)C)[C@H]1O)[C@H]2C only.
-0.41

Send back Staphylococcus aureus log10 of MIC of CC[C@H]1OC(=O)[C@H](C)[C@H]2OC3(CCN(C(=O)c4ccco4)CC3)O[C@](C)(C[C@@H](C)CN[C@H](C)[C@@H](O)[C@]1(C)O)[C@H](O[C@@H]1O[C@H](C)C[C@H](N(C)C)[C@H]1O)[C@H]2C only.
-0.11

----------
tested on: Staphylococcus aureus; assay: Effective dose required to inhibit Staphylococcus aureus intraperitoneal (IP) infection model; format: functional
Quantity measured: ED50

Line notation	ED50
CC[C@H]1OC(=O)[C@H](C)[C@H]2OC3(CCN(CCc4cccc(OC)c4)CC3)O[C@](C)(C[C@@H](C)CN(C)[C@H](C)[C@@H](O)[C@]1(C)O)[C@H](O[C@@H]1O[C@H](C)C[C@H](N(C)C)[C@H]1O)[C@H]2C	> 20 mg/kg
CC[C@H]1OC(=O)[C@H](C)[C@H]2OC3(CCN(CCc4ccc(OC)cc4)CC3)O[C@](C)(C[C@@H](C)CN(C)[C@H](C)[C@@H](O)[C@]1(C)O)[C@H](O[C@@H]1O[C@H](C)C[C@H](N(C)C)[C@H]1O)[C@H]2C	> 20 mg/kg
CC[C@H]1OC(=O)[C@H](C)[C@H]2OC3(CCN(CCc4ccnc5ccccc45)CC3)O[C@](C)(C[C@@H](C)CN[C@H](C)[C@@H](O)[C@]1(C)O)[C@H](O[C@@H]1O[C@H](C)C[C@H](N(C)C)[C@H]1O)[C@H]2C	> 20 mg/kg

Identify ED50 associated with the compound CC[C@H]1OC(=O)[C@H](C)[C@H]2OC3(CCN(C(=O)c4ccco4)CC3)O[C@](C)(C[C@@H](C)CN[C@H](C)[C@@H](O)[C@]1(C)O)[C@H](O[C@@H]1O[C@H](C)C[C@H](N(C)C)[C@H]1O)[C@H]2C
12 mg/kg

Identify ED50 associated with the compound CC[C@H]1OC(=O)[C@H](C)[C@H]2OC3(CCN(C(=O)c4cccc(O)n4)CC3)O[C@](C)(C[C@@H](C)CN[C@H](C)[C@@H](O)[C@]1(C)O)[C@H](O[C@@H]1O[C@H](C)C[C@H](N(C)C)[C@H]1O)[C@H]2C
19 mg/kg

Identify ED50 associated with the compound CC[C@H]1OC(=O)[C@H](C)[C@H]2OC3(CCN(C(=O)c4ccnc5ccccc45)CC3)O[C@](C)(C[C@@H](C)CN[C@H](C)[C@@H](O)[C@]1(C)O)[C@H](O[C@@H]1O[C@H](C)C[C@H](N(C)C)[C@H]1O)[C@H]2C
7.6 mg/kg

Identify ED50 associated with the compound CC[C@H]1OC(=O)[C@H](C)[C@H]2OC3(CCN(Cc4ccccn4)CC3)O[C@](C)(C[C@@H](C)CN[C@H](C)[C@@H](O)[C@]1(C)O)[C@H](O[C@@H]1O[C@H](C)C[C@H](N(C)C)[C@H]1O)[C@H]2C
< 5 mg/kg

Identify ED50 associated with the compound CC[C@H]1OC(=O)[C@H](C)[C@H]2OC3(CCN(C(=O)c4cc5ccccc5[nH]4)CC3)O[C@](C)(C[C@@H](C)CN[C@H](C)[C@@H](O)[C@]1(C)O)[C@H](O[C@@H]1O[C@H](C)C[C@H](N(C)C)[C@H]1O)[C@H]2C
> 20 mg/kg
